// provenance: ChEMBL document CHEMBL5331132

test summary: Glutathione reactivity in potassium phosphate buffer at pH 7.2 assessed as half life at 1 mM by UHPLC analysis
Format: physicochemical
property measured: half-life at 1000 µM (h)

A: C#CCOCCOCCOc1cccc(N2CCN(C(=O)C(F)F)CC2)c1
B: C#CCOCCOCCOc1cccc(N2CCN(C(=O)C(F)(F)Br)CC2)c1
Sort A and B by half-life at 1000 µM descending and give the first. Selection: enter the item's label.
A
(A: 129 h, B: 33.4 h)

* * *

Documented pIC50 across a set of compounds
test summary: Antiproliferative activity against human gefitinib resistant NCI-H1975 cells harboring EGFR L858R/T790M double mutant assessed as inhibition of cell proliferation incubated for 72 hrs by cell count reagent SF based assay
Type: functional
// pIC50: -log10(molar conc.)

Entry O=C(Nc1cc2c(Nc3ccc(F)c(Cl)c3)ncnc2cc1OCCCN1CCOCC1)[C@H]1CCCN1C(=O)C(F)Cl (some centres not stated) ; pIC50 = 6.55

Entry "O=C(Nc1cc2c(Nc3ccc(F)c(Cl)c3)ncnc2cc1OCCCN1CCOCC1)[C@H]1CCCN1C(=O)C(Cl)Cl" — recorded pIC50 = 6.31

* * *

test summary: Metabolic stability in human liver microsomes assessed as clearance at 1 uM incubated for 30 mins by LC-MS/MS analysis
Type: ADME, Microsome
condition label: read-out: CLH
property measured: microsomal CLint at 1 µM (µL/min/mg)

In the examples that follow, each entry is paired with its recorded microsomal CLint at 1 µM.
>>> test_result("C=C(F)C(=O)N1CCN(c2nc(OC[C@@H]3CCCN3C)nc3c2CCN(c2cccc4cccc(Cl)c24)C3)C[C@@H]1CC#N [ADAGRASIB]")
215
>>> test_result("CN1CCC[C@H]1COc1nc2c(c(N3CCN(C(=O)[C@@H](F)Cl)[C@@H](CC#N)C3)n1)CCN(c1cccc3cccc(Cl)c13)C2")
272

I: CN1CCC[C@H]1COc1nc2c(c(N3CCN(C(=O)C(Cl)Cl)[C@@H](CC#N)C3)n1)CCN(c1cccc3cccc(Cl)c13)C2
II: CN1CCC[C@H]1COc1nc2c(c(N3CCN(C(=O)C(Cl)Cl)[C@@H](CC#N)C3)n1)CCN(c1cccc3ccc(F)c(Cl)c13)C2
In the pair I and II , the larger recorded microsomal CLint at 1 µM belongs to which? State the label of the item chosen.
I
